Data origin, for the record: ChEMBL document CHEMBL5331097

- STUDY TARGET: Macrophage migration inhibitory factor (Homo sapiens, UniProt P14174)
- PROTOCOL: Inhibition of human recombinant MIF ketonase activity using phenylpyruvate as substrate
- SETTINGS: read-out: IC50
QUANTITY: IC50 (µM)

Example entries begin here.
INSERT INTO measurements (smiles_code, measured_result) VALUES
  ('O=C1/C(=C/c2ccc(O)cc2)CSc2ccccc21', 99.3),
  ('O=C1/C(=C/c2cccc(O)c2O)Cc2ccccc21', 2.05),
  ('O=C1/C(=C/c2cccc(O)c2)CCc2ccccc21', 25.4);

P = O=C1/C(=C/c2c[nH]c3ccccc23)CCc2cc(O)ccc21
Q = O=C1/C(=C/c2ccc(O)cc2)Cc2ccccc21
Task item: I would appreciate it if you could say which entry, P or Q , has the lower IC50 value. Choose, then provide that item's label.
Reply: Q
(Q: 0.88 µM, P: 60.7 µM)

a = COc1ccc2c(c1)CC/C(=C\c1ccc(O)cc1)C2=O
b = COc1cc(/C=C2\Cc3ccccc3C2=O)ccc1O
Task item: I would appreciate it if you could say which entry, a or b , has the lower IC50 value. Choose, then provide that item's label.
Reply: a

1 = O=C1/C(=C/c2ccc[nH]2)CCc2cc(O)ccc21
2 = COc1cc(/C=C2\CCc3cc(O)ccc3C2=O)cc(OC)c1OC
Task item: When 1 and 2 are compared, which has the higher number for IC50? Choose, then provide that item's label.
Reply: 1

---

- STUDY TARGET: UniProt P14174
- Sequence (P14174 whole entry): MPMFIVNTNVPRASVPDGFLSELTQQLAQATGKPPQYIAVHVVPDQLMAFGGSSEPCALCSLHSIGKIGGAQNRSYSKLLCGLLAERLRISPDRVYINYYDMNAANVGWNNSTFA
- PROTOCOL: Inhibition of human recombinant MIF ketonase activity using phenylpyruvate as substrate
- SETTINGS: read-out: IC50
QUANTITY: IC50 (µM)

P = COc1cc(/C=C2\CCc3ccccc3C2=O)ccc1O
Q = COc1ccc2c(c1)CC/C(=C\c1ccc(O)c(O)c1)C2=O
Task item: When P and Q are compared, which has the higher number for IC50? Choose, then provide that item's label.
Reply: Q

---

- STUDY TARGET: Macrophage migration inhibitory factor (Homo sapiens, UniProt P14174)
- Sequence (P14174 whole entry): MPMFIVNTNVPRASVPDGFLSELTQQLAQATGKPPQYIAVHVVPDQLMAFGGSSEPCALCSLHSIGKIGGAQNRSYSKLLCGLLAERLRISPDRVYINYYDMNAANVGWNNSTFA
- PROTOCOL: Inhibition of human recombinant MIF enolase activity using phenylpyruvate as substrate
- SETTINGS: read-out: IC50
QUANTITY: IC50 (µM)

INSERT INTO measurements (smiles_code, study_target, quantity, measured_result) VALUES
  ('O=C1/C(=C/c2cccnc2)CCc2cc(O)ccc21', 'Macrophage migration inhibitory factor (Homo sapiens, UniProt P14174)', 'IC50', 33.3);

P = COc1ccc(/C=C2\Cc3ccccc3C2=O)cc1O
Q = O=C1/C(=C/c2ccc(O)cc2)CCCc2ccccc21
R = COc1ccc2c(c1)CC/C(=C\c1ccc(O)c(OC)c1)C2=O
S = O=C1/C(=C/c2ccccc2)COc2cc(O)ccc21
Task item: Ranking field: IC50; order: falling. Write the labels in rank order as requested.
Reply: R, S, Q, P
